Molecular target: His-Tagged hOGA (human O-GlcNAcase) (Homo sapiens (Human), UniProt O60502)
Sequence (O60502 whole entry): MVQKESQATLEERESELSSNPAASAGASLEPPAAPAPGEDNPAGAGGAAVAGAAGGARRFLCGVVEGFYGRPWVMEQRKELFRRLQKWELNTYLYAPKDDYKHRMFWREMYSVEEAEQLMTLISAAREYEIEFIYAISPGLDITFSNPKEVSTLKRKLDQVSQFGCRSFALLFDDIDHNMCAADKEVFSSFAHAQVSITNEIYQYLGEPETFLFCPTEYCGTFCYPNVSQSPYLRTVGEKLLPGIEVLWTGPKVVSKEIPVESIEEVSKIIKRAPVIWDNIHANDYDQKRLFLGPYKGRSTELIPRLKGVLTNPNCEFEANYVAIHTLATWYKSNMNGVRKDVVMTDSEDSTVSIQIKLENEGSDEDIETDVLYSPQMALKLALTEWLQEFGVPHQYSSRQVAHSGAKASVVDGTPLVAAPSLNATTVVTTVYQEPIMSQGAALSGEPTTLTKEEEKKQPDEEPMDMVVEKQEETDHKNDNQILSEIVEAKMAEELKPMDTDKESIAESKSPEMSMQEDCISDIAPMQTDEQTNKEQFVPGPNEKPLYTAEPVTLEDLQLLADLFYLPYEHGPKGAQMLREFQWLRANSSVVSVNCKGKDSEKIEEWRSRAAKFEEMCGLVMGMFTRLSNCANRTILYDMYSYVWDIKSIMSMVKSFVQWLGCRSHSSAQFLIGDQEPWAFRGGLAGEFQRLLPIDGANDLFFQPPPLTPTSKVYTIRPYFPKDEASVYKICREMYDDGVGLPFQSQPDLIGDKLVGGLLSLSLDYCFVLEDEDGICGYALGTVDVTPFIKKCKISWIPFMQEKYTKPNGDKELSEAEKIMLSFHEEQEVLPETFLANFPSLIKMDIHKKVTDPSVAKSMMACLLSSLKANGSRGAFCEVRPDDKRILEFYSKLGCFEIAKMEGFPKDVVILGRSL
Assay: Human O-GlcNAcase enzyme inhibition assay
Format: biochemical
Conditions: 20 nM His-Tagged hOGA, 10 μM FL-GlcNAc, 60 min at room temperature, pH 6.5; activity classes defined in μM; read-out: Enzymatic OGA IC50
Parameter IC50: see the listing below.
Value type: IC50

Molecule	Endpoint result
CC(c1ccc2c(c1)OCC2)N1CCC(Oc2cccnc2)CC1 (racemic) [Example 32]	< 0.05 µM
CC(c1ccc2c(c1)OCC2)N1CCC(NC(=O)Cc2ccc(C#N)cc2)CC1 (racemic) [Example 26]	0.05 to 0.2 µM
COc1cc(OC2CCN(C(C)c3ccc4c(c3)OCC4)CC2)ccn1 (racemic) [Example 29]	< 0.05 µM
CC(c1ccc2c(c1)OCC2)N1CCN(C(=O)NC2CCOC2)CC1 (racemic) [Example 18]	0.05 to 0.2 µM
CC(c1ccc2c(c1)OCC2)N1CCC(Oc2ncccn2)CC1 (racemic) [Example 37]	0.2 to 1 µM
CC(c1ccc2c(c1)OCC2)N1CCC(Oc2cncnc2)CC1 (racemic) [Example 34]	0.05 to 0.2 µM
CC(c1ccc2c(c1)OCC2)N1CCC(Oc2cccnn2)CC1 (racemic) [Example 38]	0.2 to 1 µM
CC(c1ccc2c(c1)OCC2)N1CCC(NC(=O)Cc2ccc(S(C)(=O)=O)cc2)CC1 (racemic) [Example 25]	< 0.05 µM
CC(c1ccc2c(c1)OCC2)N1CCC(Nc2cccnc2)CC1 (racemic) [Example 24]	0.05 to 0.2 µM
CC(c1ccc2c(c1)OCC2)N1CCC(C(=O)NCc2ccc(C(F)(F)F)cc2)CC1 (racemic) [Example 23]	0.2 to 1 µM
CC(c1ccc2c(c1)OCC2)N1CCC(Oc2ccc(C#N)cn2)CC1 (racemic) [Example 33]	< 0.05 µM
CC(c1ccc2c(c1)OCC2)N1CCC(OCc2cccnc2)CC1 (racemic) [Example 35]	0.05 to 0.2 µM
CC(c1ccc2c(c1)OCC2)N1CCC(NC(=O)Cc2ccc(C(F)(F)F)cc2)CC1 (racemic) [Example 27]	0.05 to 0.2 µM
CC(c1ccc2c(c1)OCC2)N1CCC(C(=O)NCc2ccc(S(C)(=O)=O)cc2)CC1 (racemic) [Example 22]	0.2 to 1 µM
CC(c1ccc2c(c1)OCC2)N1CCC(C(=O)NCc2ccc(C#N)cc2)CC1 (racemic) [Example 21]	0.2 to 1 µM
CC(c1ccc2c(c1)OCC2)N1CCC(Oc2ncc(S(C)(=O)=O)cn2)CC1 (racemic) [Example 36]	0.05 to 0.2 µM
CC(c1ccc2c(c1)OCO2)N1CCN(C(=O)Nc2ccc(Cl)cc2)CC1 (racemic) [Example 20]	0.2 to 1 µM

* * *

Target: UniProtKB O60502
Experiment: Human O-GlcNAcase enzyme inhibition assay
Type: biochemical
Details: 20 nM His-Tagged hOGA, 10 μM FL-GlcNAc, 60 min at room temperature, pH 6.5; activity classes defined in μM; read-out: Enzymatic OGA IC50
Parameter IC50: see the listing below.

Compound	IC50
CC(c1ccc2c(c1)OCC2)N1CCC(Oc2cccnc2)CC1 (single isomer, unassigned) [Example 28]	< 0.05 µM
CC(c1ccc2scnc2c1)N1CCC(Oc2cccnc2)CC1 (single isomer, unassigned)	< 0.05 µM
CC(c1ccc2c(c1)OCC2)N1CCC(Oc2cccnc2)CC1 (single isomer, unassigned) [Example 39]	1 to 10 µM
CC(c1ccc2c(c1)OCO2)N1CCN(C(=O)Nc2ccccc2)CC1 (racemic)	0.2 to 1 µM
CC(c1ccc2c(c1)OCC2)N1CCC(Oc2ccc(S(C)(=O)=O)cn2)CC1 (racemic)	< 0.05 µM

This collection of values is drawn from patent US11213525B2.
